# Test system: Plasmodium falciparum
# Assay name: Calibr Malaria Delayed Death Assay SOP
# Type: functional, organism-based
# Set-up: scale not given: in the data most compounds retested in dose-response had high values
# Condition parameters: concentration 4.99e-06 (unit not given; other assays of the set use mol/L)
About 1,200 (3.2%) of roughly 38,000 compounds showed an effect of 50% or more. The median lay at about -58%. The entries come from a sample that favours strong results as a whole.
I would appreciate it if you labelled entries True when Percent Effect is -30% or higher, otherwise False.

Asked: Record CC(C)NC(=O)CCN1CCCC1c1cccc2c1OCCO2 (configuration not stated) ; criterion: Percent Effect no lower than -30%. Met?
Given back: True

Asked: Tell me whether Percent Effect is at least -30% here: `Nc1cc(-c2cc(O)cc(C(=O)O)c2)c2cc[nH]c2n1`
Given back: True

Asked: State whether the measured Percent Effect reaches -30%, counting equality as reaching it, for `Nc1cc(-c2ccc(C(=O)O)cc2O)c2cc[nH]c2n1`
Given back: False

Asked: Answer whether Percent Effect of `CN(C)c1no[n+]([O-])c1-c1ccccc1` is greater than or equal to -30%.
Given back: False

Asked: Assess whether reported Percent Effect for O=C(CCN1CCCC1c1cccc2c1OCCO2)N1CCOCC1 (configuration not stated) sits at -30% or higher.
Given back: True

Asked: Is it the case that O=C(CCN1CCCCCC1c1ccco1)N1CCOCC1 (configuration not stated) has Percent Effect reaching or exceeding -30%?
Given back: False

Asked: Say whether CNC(=O)CCN1CCCC1c1ccccc1Br (configuration not stated) shows Percent Effect of -30% or more.
Given back: True

Asked: Record CC(C)NC(=O)CN1CCN(CC2CCOc3ccccc3C2)CC1 (configuration not stated) ; criterion: Percent Effect no lower than -30%. Met?
Given back: True

Asked: Determine whether this compound has Percent Effect no lower than -30%: Cc1nccc(-c2cccc(NCC(=O)N3CCOC(C)C3)c2)n1 (configuration not stated)
Given back: False

Asked: Is Percent Effect at least -30%? Consider `Cc1cc(NCCC(=O)NC2CCCCC2)nc(-c2ccncc2)n1`
Given back: True

Asked: I'd appreciate it if you could say whether `COCc1ncc(-c2nccn2CCS(C)(=O)=O)cn1` has Percent Effect at least equal to -30%.
Given back: False

Asked: Check this compound for Percent Effect at or above -30%: CCNC(=O)CCN1CCCC1c1cccc2c1OCCO2 (configuration not stated)
Given back: True

====

So I've got a bunch of compounds here, and I need their Percent Effect values.
# Test system: Plasmodium falciparum
# Assay name: Calibr Malaria Delayed Death Assay SOP
# Format: functional, organism-based
# Parameters: scale not given: in the data most compounds retested in dose-response had high values
# Condition parameters: concentration 4.99e-06 (unit not given; other assays of the set use mol/L)
Out of some 38,000 compounds screened, about 1,200 (3.2%) showed an effect of 50% or more. The median lay at about -58%. This excerpt belongs to a sample that is enriched for strong results.
Numeric answer only, unit % assumed.

Asked: Value lookup for Percent Effect; key = `Clc1ccc(C2(CNC3=NCCN3)CCCCC2)cc1.I`
Given back: 89.77

Asked: Which Percent Effect is reported for this compound? `CC(=O)Nc1c(C)noc1/C=C\c1ccc(S(=O)(=O)N2CCCC2)cc1`
Given back: 10.91

Asked: Report Percent Effect for CN1CCN(C(=O)N2CCCC(c3nccn3CC3CCC3)C2)CC1 (centres undefined) please.
Given back: -95.73

Asked: I'd like to know its Percent Effect. The compound in question is `O=C(O)C(F)(F)F.c1cncc(N2CCC3(CCCN(c4ccncc4)C3)CC2)c1`
Given back: 46.04

Asked: Request the reported Percent Effect associated with `CN(CCCO)C(=O)c1cc(COc2ccc3c(c2)CCCC3)on1`
Given back: -142.4

Asked: What does the record list as Percent Effect for FC(F)Oc1ccccc1CN1CCCC(c2nccn2CC2CC2)C1 (centres undefined) ?
Given back: 86.3

Asked: Find the recorded Percent Effect belonging to `CS(=O)(=O)N1CCC2(CCN(C(=O)c3cccnc3)CC2)C1.O=C(O)C(F)(F)F` and report it.
Given back: -35.24

Asked: Entry Cc1nnn2c1COC(CNC(=O)c1cccn1C)C2 (centres undefined) : reported Percent Effect = ?
Given back: -28

Asked: Requested field: Percent Effect. Item: O=C1CC(CNc2cncc(Br)c2)c2ccccc2N1 (centres undefined)
Given back: 9.989

Asked: Looking for the measured Percent Effect of `O=C(O)C(F)(F)F.O=C(O)C(F)(F)F.c1cncc(N2CCCC3(CCN(CCN4CCCC4)CC3)C2)c1` , can you help?
Given back: 91.95

Asked: Please give the measured Percent Effect for this compound: CCC(=O)Nc1cccc(OCC(=O)N(C)CCCC2CCCO2)c1 (centres undefined)
Given back: -128

Asked: Any idea what its Percent Effect is? The compound is `COc1ccc(-c2noc(CN3CC(n4cc(C)cn4)C3)n2)cc1`
Given back: -35.96

Asked: Could you share which Percent Effect value was measured for `C=C(C)CN1CCC(NC(=O)Nc2ccc(F)c(C(N)=O)c2)CC1` ?
Given back: -90.89

Asked: Dear colleague, I am looking for the recorded Percent Effect of the following compound: `CCNc1ncc2c(n1)CN(c1ccc(OC(F)(F)F)cc1)C2=O`
Given back: 14.47

Asked: Please look up its Percent Effect: Cc1noc(C(C)NC(=O)[C@@H](C)NC(=O)OC(C)(C)C)n1 (some centres undefined)
Given back: -163.7

Asked: Can you share its Percent Effect? I mean this compound: CC(CN1CC[C@@H]2CCCC[C@@H]2C1)n1cnc2ccccc21 (some centres undefined)
Given back: -12.48

Asked: // returns reported Percent Effect for input `c1ccc2[nH]c(C3CCN(Cc4nnc(C5CC5)o4)CC3)cc2c1`
Given back: -66.02

Asked: Suppose we examine the compound CS(=O)(=O)c1cncnc1C1CCCNC1.Cl (centres undefined) ; what Percent Effect value has been reported?
Given back: -139

Asked: Quick one: Percent Effect for CC(C)N1CCCCC1CCn1cnc2cc(C(F)(F)F)ccc2c1=O (centres undefined) ?
Given back: -97.47

Asked: Give the measured Percent Effect of NC(=O)Cn1ccnc1C1CCCN(Cc2ccccc2OC(F)F)C1 (centres undefined) .
Given back: -1.798

Asked: I'd like to know its Percent Effect. The compound in question is `N#Cc1csc(CNCCOc2ccccc2)c1`
Given back: -47.61

Asked: Tell me the measured Percent Effect of `O=C(CCO)N1CC[C@@H]2CN(C(=O)c3ccco3)CCO[C@@H]2C1` , please.
Given back: -32.06

Asked: # query: Percent Effect of entry COCCN1CCC2(CC1)CC(N1CCOCC1)c1cc(C)ccc12.O=C(O)C(F)(F)F.O=C(O)C(F)(F)F (centres undefined)
Given back: -78.91

Asked: Can you look up the measured Percent Effect of Cc1nccc(CNC(=O)N(CCCO)C2CCc3ccccc32)n1 (centres undefined) for me?
Given back: -86.6

Asked: Suppose we examine the compound c1cncc(CN2CCCC3(COCCN(c4cncnc4)C3)C2)c1 (centres undefined) ; what Percent Effect value has been reported?
Given back: -38.46

Asked: Find the recorded Percent Effect belonging to CS(=O)(=O)N1CCC2(CC1)CC(NCc1ccccn1)c1ccccc12 (centres undefined) and report it.
Given back: 1.106

Asked: What value of measured Percent Effect is listed for `Cn1cccc1C(=O)N1CCCn2nc(CCC(=O)NC3CC3)cc2C1` ?
Given back: -14.31

Asked: Fill in: Percent Effect of `Cc1c(CN2CC[C@@H](N3CCC(O)CC3)[C@H](O)C2)[nH]c2ccc(F)cc12` is ___
Given back: -24.81

Asked: # Percent Effect lookup, item `COc1ccc2nnc(CCC(=O)Nc3nc4c(s3)CCCCC4)n2n1`
Given back: -7.858

Asked: Look up Percent Effect for this compound: `CCc1cc(N2C[C@H](C3CC3)[C@@H](N)C2)nc(N2CCCC2)n1`
Given back: 69.94

Asked: Name the recorded Percent Effect for `Cc1ccc(CN2CCN(CC(=O)Nc3ccc4nsnc4c3)CC2)o1` .
Given back: -102.5

Asked: Could you tell me which Percent Effect is on file for `CN(CCCOc1ccccc1Cl)C(=O)CN1CCCCCC1=O` ?
Given back: -111.3

Asked: Quick one: Percent Effect of `CNc1cc(C)nc(N2C[C@@H](C(=O)O)[C@H](C3CC3)C2)n1` ?
Given back: -82.68

Asked: // returns reported Percent Effect for input CCC(=O)N1CCC2(COCc3cnc(N4CCOCC4)nc32)C1 (centres undefined)
Given back: -52.14

Asked: Endpoint output: Percent Effect of `CNc1cc(C)nc(N2C[C@H](C3CC3)[C@@H](N)C2)n1` . Value?
Given back: 87.7

Asked: Can you share its Percent Effect? I mean this compound: `Cc1ccc2[nH]c(CN3CC[C@@H](N4CCN(C)CC4)[C@H](O)C3)c(C)c2c1`
Given back: -45.01

Asked: Which Percent Effect value belongs to NC(=O)N1Cc2nccn2CC(Cn2ncccc2=O)C1 (centres undefined) ?
Given back: -152.6

Asked: Entry `COc1cc(F)ccc1N1CCN(Cc2nnc(C3CC3)o2)CC1` has what Percent Effect?
Given back: -5.241

Asked: Any idea what its Percent Effect is? The compound is CC(CNC(=O)NCc1ccoc1)N1CCc2sccc2C1 (centres undefined)
Given back: -8.458

Asked: Quick one: Percent Effect for c1ccc(C(OCCNC2CCc3ncnn3C2)c2ccccc2)cc1 (centres undefined) ?
Given back: 43.54

Asked: Report Percent Effect for O=C(O)C(F)(F)F.c1cncc(N2CCCC3(CCN(CC4CCCO4)CC3)C2)c1 (centres undefined) please.
Given back: 46.34

Asked: So what's the measured Percent Effect for this one? Cn1cc(CN2CCCC3(COCCN(c4cccnc4)C3)C2)cn1.O=C(O)C(F)(F)F.O=C(O)C(F)(F)F (centres undefined)
Given back: -73.12

Asked: Look up Percent Effect for this compound: `NC(=O)CCNC(=O)C1(N2CCCCC2)Cc2ccccc2C1`
Given back: -32.27

Asked: Data request, read-out Percent Effect, for COCCN1CCC2(CC1)CC(NCc1ccc(C)s1)c1ccccc12.O=C(O)C(F)(F)F.O=C(O)C(F)(F)F (centres undefined)
Given back: 76.07
